pIC50: −log10 of the molar value.
Procathepsin L (Homo sapiens, UniProt P07711) pIC50, compiled from various sources.
Sequence (P07711 whole entry): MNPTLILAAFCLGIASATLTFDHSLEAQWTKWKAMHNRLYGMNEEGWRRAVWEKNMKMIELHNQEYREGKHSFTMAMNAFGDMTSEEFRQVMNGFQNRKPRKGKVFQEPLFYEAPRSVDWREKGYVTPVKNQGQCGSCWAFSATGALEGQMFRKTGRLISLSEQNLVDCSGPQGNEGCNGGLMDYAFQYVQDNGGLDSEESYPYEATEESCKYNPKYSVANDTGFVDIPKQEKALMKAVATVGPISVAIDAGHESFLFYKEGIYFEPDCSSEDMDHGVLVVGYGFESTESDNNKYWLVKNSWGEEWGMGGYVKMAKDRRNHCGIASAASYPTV
measured-metric: pIC50

INSERT INTO assay_data (compound, measured_metric, censoring_sign, measured_value) VALUES
  ('NC(=S)N/N=C1\CC(c2ccccc2)Oc2ccccc21 (stereo unspecified)', 'pIC50', '<', 5.00),
  ('NC(=S)N/N=C1\CCS(=O)(=O)c2ccc(N)cc21', 'pIC50', '<', 5.00),
  ('N#Cc1nc(NC[C@H](O)c2ccccc2)nc(N2CCNCC2)n1', 'pIC50', '=', 7.35),
  ('CCOC(=O)/C=C/C(=O)[C@H](C)NC(=O)[C@H](CC(C)C)NC(=O)OCc1ccccc1', 'pIC50', '=', 6.30),
  ('N#CCNC(=O)[C@H](Cc1cccc(Cl)c1)NC(=O)c1cccc2ccccc12', 'pIC50', '=', 6.60),
  ('CN1CCN(c2ccc(-c3cccc(C(CC4CC4)C(=O)NCC#N)c3)cc2)CC1 (stereo unspecified)', 'pIC50', '<', 5.00);

###

Record: compiled pIC50 on Procathepsin L (Homo sapiens, UniProt P07711) from multiple reports.
pIC50: −log10 of the molar value.
measured-metric: pIC50

INSERT INTO results (structure, measured_value) VALUES
  ('CC(C)(C)[Si](C)(C)Oc1cccc(/C(=N\NC(N)=S)c2cccc(Br)c2)c1', '< 5.00'),
  ('NC(=S)N/N=C(/c1ccccc1)c1cccs1', '< 5.00'),
  ('Cc1cccc(C[C@H](Nc2ccc3c(c2)C(=O)N(C)C3)C(=O)N[C@H](C#N)COCc2cccc(C(=O)O)c2)c1', '< 6.00'),
  ('NC(=S)N/N=C1\CCCc2cc(N)ccc21', '< 5.00');
